The measured values listed here are drawn from paper PMC7156458.

# measurement.target: Aβ42 (Homo sapiens)
# assay.explanation: Th-T (thioflavin-T) assay of Aβ42 aggregation
# Type: biochemical
# stated.conditions: reading M18; Supplementary Fig. 47 source data
reported.metric: Th-T fluorescence, mean of three wells
Enter the number alone.

Example entries begin here.
• CC(C)=CCC/C(C)=C/CC/C(C)=C/CC/C(C)=C/Cc1c(O)c(C)c(C)oc1=O [Compound 2] = 2.4977
• C=C1CC[C@H]2[C@]3(C)C[C@H](C=C(C)C)O[C@H]3CC[C@]2(C)[C@@H]1Cc1c(OC)oc(CO)c(C)c1=O [Compound 18] = 3.467
• C=C1CC[C@H]2[C@]3(C)C[C@H](C=C(C)C)O[C@H]3CC[C@]2(C)[C@@H]1Cc1c(O)c(C)c(C)oc1=O [Compound 6, subglutinol B] = 1.512
• C=C1CCC2C(C)(CC(=O)C=C(C)C)C(O)CCC2(C)C1Cc1c(OC)oc(C)c(C)c1=O (stereo not drawn) [Compound 25] = 3.246
• C=C1CC[C@H]2[C@]3(C)C[C@H](C=C(C)C)O[C@H]3CC[C@]2(C)[C@@H]1Cc1c(OC)oc(C)c(C)c1=O [Compound 24] = 3.688
• C=C1CC[C@H]2[C@]3(C)C[C@@H](C=C(C)C)O[C@H]3CC[C@]2(C)[C@@H]1Cc1c(O)c(C)c(C)oc1=O [Compound 5, subglutinol A] = 2.054

Requested read-out: Th-T fluorescence, mean of three wells. Entry: C=C1CCC2C(C)(CC(=O)C=C(C)C)C(O)CCC2(C)C1Cc1c(OC)oc(CO)c(C)c1=O (stereo not drawn) [Compound 19] 1.449

Same again, this time with C=C1CC[C@H]2[C@]3(C)C[C@@H](C=C(C)C)O[C@H]3CC[C@]2(C)[C@@H]1Cc1c(OC)oc(CO)c(C)c1=O [Compound 17] 2.682

Same again, this time with C=C1CCC2C(C)(CC(=O)C=C(C)C)C(O)CCC2(C)C1Cc1c(O)c(C)c(C)oc1=O (stereo not drawn) [Compound 7] 0.9995

Same again, this time with C=C1CCC2C(C)(CCC=C(C)C)C(=O)CCC2(C)C1Cc1c(O)c(C)c(C)oc1=O (stereo not drawn) [Compound 8] 1.528

Same again, this time with C=C1CC[C@@H]2[C@](C)(CC[C@H]3O[C@H](C=C(C)C)C[C@@]23C)[C@@H]1Cc1c(O)c(C)c(C)oc1=O [Compound 10, higginsianin A] 2.387

Same again, this time with C=C1CCC2C3(C)CC(C=C(C)C)OC3CCC2(C)C1Cc1c(OC)oc(C)c(C)c1=O (stereo not drawn) [Compound 23] 3.274

====

# measurement.target: Aβ42 (Homo sapiens, UniProt P05067)
# Sequence (P05067 672-713): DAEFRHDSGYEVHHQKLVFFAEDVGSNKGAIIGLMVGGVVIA
# assay.explanation: Th-T (thioflavin-T) assay of Aβ42 aggregation
# Format: biochemical
# stated.conditions: compound at 20; reading M52 of time course
Labelling: Th-T fluorescence, mean of three wells reported below 2 becomes Yes; at or above becomes No.

Here are 4 compounds together with their reported answers.
* C=C1CC[C@@H]2[C@](C)(CC[C@H]3O[C@H](C=C(C)C)C[C@@]23C)[C@@H]1Cc1c(OC)oc(CO)c(C(=O)OC)c1=O | Yes
* C=C1CCC2C(C)(CCC=C(C)C)C(O)CCC2(C)C1Cc1c(OC)oc(CO)c(C(=O)OC)c1=O (centres unmarked) | Yes
* C=C1CCC2C(C)(CCC=C(C)C)C(O)CCC2(C)C1Cc1c(OC)oc(CO)c(C)c1=O (centres unmarked) | No
* C=C1CCC2C(C)(CCC=C(C)C)C(O)CCC2(C)C1Cc1c(OC)oc(C)c(C(=O)OC)c1=O (centres unmarked) | No

Next item in the queue.
# strict comparison: is reported Th-T fluorescence, mean of three wells < 2? input = "C=C1CC[C@@H]2[C@](C)(CC[C@H]3O[C@H](C=C(C)C)C[C@@]23C)[C@@H]1Cc1c(OC)oc(CO)c(C)c1=O" No
